- assay-protocol: Plasma protein binding
- Format: in vitro ADME
- cond: human
recorded-metric: fraction unbound
The answer should be a number; do not append a unit.

## Input Any idea what fraction unbound was measured for `C#CC(F)(F)[C@]1(O)CC[C@H]2[C@@H]3CCC4=CC(=O)CCC4=C3[C@@H](c3ccc(-c4c(C)cc(C)cc4C)cc3)C[C@@]21C` ?
## Output 0.0002

* * *

- assay-protocol: Plasma protein binding
- Format: in vitro ADME
- cond: mouse
recorded-metric: fraction unbound
The answer should be a number; do not append a unit.

## Input Any idea what fraction unbound was measured for `C#CC(F)(F)[C@]1(O)CC[C@H]2[C@@H]3CCC4=CC(=O)CCC4=C3[C@@H](c3ccc(-c4c(C)cc(C)cc4C)cc3)C[C@@]21C` ?
## Output 0.0037

* * *

- assay-protocol: Solubility: pION, kinetic, thermodynamic
- Format: physicochemical
recorded-metric: solubility

## Input Any idea what solubility was measured for C#CC(F)(F)[C@]1(O)CC[C@H]2[C@@H]3CCC4=CC(=O)CCC4=C3[C@@H](c3ccc(-c4c(C)cc(C)cc4C)cc3)C[C@@]21C [EC359] ?
## Output < 10 µg/mL

* * *

- Test system: A549 (Lung cancer)
- assay-protocol: Short term (72 h) cytotoxicity assay
- Assay type: cell-based
- cond: Homo sapiens, A549, 72 h
recorded-metric: IC50 (nM)
Report as a plain number; the unit nM is understood.

## Input Any idea what IC50 was measured for C#CC(F)(F)[C@]1(O)CCC2C3CCC4=CC(=O)CCC4=C3C(c3ccc(N(C)C)cc3)C[C@@]21C (stereo partly shown) ?
## Output 45

* * *

- subject-of-test: UniProt Q12809
- Sequence (Q12809 whole entry): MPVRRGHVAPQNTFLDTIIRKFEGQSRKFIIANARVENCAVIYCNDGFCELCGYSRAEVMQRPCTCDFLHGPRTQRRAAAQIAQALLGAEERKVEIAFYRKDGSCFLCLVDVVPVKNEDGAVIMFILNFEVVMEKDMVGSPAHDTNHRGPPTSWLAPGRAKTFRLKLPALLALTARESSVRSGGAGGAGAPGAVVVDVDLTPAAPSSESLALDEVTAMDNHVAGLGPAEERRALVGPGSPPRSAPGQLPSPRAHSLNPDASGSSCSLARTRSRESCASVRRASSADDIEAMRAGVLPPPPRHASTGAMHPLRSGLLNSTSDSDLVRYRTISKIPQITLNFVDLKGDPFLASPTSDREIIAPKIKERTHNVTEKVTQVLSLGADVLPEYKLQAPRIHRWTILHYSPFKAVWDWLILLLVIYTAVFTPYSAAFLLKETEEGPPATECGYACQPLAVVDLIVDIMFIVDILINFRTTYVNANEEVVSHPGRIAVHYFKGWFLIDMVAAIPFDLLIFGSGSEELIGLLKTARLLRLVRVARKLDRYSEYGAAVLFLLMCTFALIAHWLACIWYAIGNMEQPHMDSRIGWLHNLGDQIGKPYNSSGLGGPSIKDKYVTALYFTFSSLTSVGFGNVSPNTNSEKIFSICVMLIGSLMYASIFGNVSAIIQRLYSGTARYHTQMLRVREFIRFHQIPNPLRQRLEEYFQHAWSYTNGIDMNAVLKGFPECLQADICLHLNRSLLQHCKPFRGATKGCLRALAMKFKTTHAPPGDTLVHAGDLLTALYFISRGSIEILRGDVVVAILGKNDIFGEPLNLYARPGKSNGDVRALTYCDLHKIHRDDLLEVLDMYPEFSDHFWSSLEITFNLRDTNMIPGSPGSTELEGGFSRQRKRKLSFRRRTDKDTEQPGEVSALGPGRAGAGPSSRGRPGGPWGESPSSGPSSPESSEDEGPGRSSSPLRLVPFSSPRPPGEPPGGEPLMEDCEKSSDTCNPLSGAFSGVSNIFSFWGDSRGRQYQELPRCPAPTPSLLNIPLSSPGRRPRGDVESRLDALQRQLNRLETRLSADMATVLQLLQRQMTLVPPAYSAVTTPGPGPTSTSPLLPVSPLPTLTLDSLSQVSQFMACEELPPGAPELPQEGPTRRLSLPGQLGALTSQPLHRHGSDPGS
pIC50: −log10 of the molar value.
recorded-metric: pIC50

## Input Any idea what pIC50 was measured for `C#CC(F)(F)[C@]1(O)CC[C@H]2[C@@H]3CCC4=CC(=O)CCC4=C3[C@@H](c3ccc(-c4c(C)cc(C)cc4C)cc3)C[C@@]21C` ?
## Output < 4.52

* * *

- assay-protocol: Plasma protein binding
- Type: in vitro ADME
- cond: dog
recorded-metric: fraction unbound
The answer should be a number; do not append a unit.

## Input Any idea what fraction unbound was measured for `C#CC(F)(F)[C@]1(O)CC[C@H]2[C@@H]3CCC4=CC(=O)CCC4=C3[C@@H](c3ccc(-c4c(C)cc(C)cc4C)cc3)C[C@@]21C` ?
## Output 0.0017

* * *

- subject-of-test: LIF (Homo sapiens, UniProt P15018)
- Sequence (P15018 23-202): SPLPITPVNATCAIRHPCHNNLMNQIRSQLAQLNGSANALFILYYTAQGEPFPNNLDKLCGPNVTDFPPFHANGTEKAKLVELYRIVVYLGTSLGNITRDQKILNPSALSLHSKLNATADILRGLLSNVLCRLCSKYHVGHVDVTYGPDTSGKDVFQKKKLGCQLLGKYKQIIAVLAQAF
recorded-metric: Kd

## Input Recorded Kd for `C#CC(F)(F)[C@]1(O)CC[C@H]2[C@@H]3CCC4=CC(=O)CCC4=C3[C@@H](c3ccc(-c4c(C)cc(C)cc4C)cc3)C[C@@]21C` with LIF (Homo sapiens, UniProt P15018), please?
## Output > 5 µM

* * *

- subject-of-test: GR (Homo sapiens, UniProt P04150)
- Sequence (P04150 1-777): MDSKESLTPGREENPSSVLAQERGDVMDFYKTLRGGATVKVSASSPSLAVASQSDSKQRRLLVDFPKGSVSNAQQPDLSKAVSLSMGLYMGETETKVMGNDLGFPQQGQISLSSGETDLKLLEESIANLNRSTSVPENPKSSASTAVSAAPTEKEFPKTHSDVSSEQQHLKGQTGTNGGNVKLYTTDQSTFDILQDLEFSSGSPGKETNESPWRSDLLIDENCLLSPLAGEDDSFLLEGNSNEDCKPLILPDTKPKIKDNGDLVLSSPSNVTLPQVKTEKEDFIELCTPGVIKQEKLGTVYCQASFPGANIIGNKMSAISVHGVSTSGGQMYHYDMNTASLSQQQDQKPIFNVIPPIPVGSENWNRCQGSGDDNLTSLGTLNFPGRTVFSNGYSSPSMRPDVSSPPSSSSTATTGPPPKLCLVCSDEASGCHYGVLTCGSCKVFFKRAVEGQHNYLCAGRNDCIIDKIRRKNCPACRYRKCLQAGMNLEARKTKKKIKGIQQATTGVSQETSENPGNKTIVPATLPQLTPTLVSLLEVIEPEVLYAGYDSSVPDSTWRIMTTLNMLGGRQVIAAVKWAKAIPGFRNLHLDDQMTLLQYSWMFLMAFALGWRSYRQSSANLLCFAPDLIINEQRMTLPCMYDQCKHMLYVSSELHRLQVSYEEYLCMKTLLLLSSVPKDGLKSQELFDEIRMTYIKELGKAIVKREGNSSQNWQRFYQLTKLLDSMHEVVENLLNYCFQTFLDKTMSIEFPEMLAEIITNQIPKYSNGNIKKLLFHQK
pIC50: −log10 of the molar value.
recorded-metric: pIC50

## Input Any idea what pIC50 was measured for C#CC(F)(F)[C@]1(O)CC[C@H]2[C@@H]3CCC4=CC(=O)CCC4=C3[C@@H](c3ccc(-c4c(C)cc(C)cc4C)cc3)C[C@@]21C [EC359] ?
## Output < 5.00
